- measured.target: UniProt:Q96KQ7
- Sequence (Q96KQ7 1-1210): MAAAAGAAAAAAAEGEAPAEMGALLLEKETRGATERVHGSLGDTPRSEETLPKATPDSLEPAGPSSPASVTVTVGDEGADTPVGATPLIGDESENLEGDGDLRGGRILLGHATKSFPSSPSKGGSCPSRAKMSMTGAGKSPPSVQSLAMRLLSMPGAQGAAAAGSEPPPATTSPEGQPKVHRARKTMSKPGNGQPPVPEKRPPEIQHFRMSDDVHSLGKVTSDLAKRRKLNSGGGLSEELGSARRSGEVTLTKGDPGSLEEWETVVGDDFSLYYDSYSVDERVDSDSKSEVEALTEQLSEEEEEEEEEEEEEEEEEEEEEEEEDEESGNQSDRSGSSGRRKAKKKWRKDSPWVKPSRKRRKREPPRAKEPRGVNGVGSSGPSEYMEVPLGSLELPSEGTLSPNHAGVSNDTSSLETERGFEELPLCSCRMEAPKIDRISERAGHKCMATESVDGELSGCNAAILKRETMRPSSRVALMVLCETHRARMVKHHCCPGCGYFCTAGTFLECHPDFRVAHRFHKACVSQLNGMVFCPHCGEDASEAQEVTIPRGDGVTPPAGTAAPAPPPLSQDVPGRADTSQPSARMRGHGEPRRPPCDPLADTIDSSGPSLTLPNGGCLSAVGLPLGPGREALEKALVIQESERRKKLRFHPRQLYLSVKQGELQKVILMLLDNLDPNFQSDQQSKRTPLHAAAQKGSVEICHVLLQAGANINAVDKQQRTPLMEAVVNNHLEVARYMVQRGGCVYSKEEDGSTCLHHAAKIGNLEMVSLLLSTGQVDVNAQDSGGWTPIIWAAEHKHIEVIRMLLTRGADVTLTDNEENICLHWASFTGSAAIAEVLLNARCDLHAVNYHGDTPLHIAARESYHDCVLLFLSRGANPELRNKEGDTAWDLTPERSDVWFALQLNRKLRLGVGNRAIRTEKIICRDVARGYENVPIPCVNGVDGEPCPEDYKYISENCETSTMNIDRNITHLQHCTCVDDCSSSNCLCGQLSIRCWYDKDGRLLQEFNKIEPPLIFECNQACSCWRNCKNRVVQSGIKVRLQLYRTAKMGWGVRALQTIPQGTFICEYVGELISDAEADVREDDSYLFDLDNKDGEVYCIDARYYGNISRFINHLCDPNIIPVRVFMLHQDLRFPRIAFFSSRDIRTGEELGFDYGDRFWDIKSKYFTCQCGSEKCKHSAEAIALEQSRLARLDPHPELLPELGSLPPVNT
Where a name gives a salt, the structure may show the parent alone.
quantity.measured: IC50 (nM)

Looking up COc1cc2c(cc1OCCCN1CCCC1)[nH]c1ccnc(OC3CCNC3)c12 (stereo not shown) [Compound 74, trifluoroacetate] , I found its IC50 recorded as 6.7

Looking up "COc1cc2c(cc1OCCCN1CCCC1)[nH]c1cc(N)ncc12" , I found its IC50 recorded as 5.3

Looking up COc1cc2c(cc1OCCCN(C)C)[nH]c1ccnc(C)c12 [Compound 90, hydrochloride] , I found its IC50 recorded as 7.1

----------
- measured.target: G9a (Homo sapiens, UniProt Q96KQ7)
- Sequence (Q96KQ7 1-1210): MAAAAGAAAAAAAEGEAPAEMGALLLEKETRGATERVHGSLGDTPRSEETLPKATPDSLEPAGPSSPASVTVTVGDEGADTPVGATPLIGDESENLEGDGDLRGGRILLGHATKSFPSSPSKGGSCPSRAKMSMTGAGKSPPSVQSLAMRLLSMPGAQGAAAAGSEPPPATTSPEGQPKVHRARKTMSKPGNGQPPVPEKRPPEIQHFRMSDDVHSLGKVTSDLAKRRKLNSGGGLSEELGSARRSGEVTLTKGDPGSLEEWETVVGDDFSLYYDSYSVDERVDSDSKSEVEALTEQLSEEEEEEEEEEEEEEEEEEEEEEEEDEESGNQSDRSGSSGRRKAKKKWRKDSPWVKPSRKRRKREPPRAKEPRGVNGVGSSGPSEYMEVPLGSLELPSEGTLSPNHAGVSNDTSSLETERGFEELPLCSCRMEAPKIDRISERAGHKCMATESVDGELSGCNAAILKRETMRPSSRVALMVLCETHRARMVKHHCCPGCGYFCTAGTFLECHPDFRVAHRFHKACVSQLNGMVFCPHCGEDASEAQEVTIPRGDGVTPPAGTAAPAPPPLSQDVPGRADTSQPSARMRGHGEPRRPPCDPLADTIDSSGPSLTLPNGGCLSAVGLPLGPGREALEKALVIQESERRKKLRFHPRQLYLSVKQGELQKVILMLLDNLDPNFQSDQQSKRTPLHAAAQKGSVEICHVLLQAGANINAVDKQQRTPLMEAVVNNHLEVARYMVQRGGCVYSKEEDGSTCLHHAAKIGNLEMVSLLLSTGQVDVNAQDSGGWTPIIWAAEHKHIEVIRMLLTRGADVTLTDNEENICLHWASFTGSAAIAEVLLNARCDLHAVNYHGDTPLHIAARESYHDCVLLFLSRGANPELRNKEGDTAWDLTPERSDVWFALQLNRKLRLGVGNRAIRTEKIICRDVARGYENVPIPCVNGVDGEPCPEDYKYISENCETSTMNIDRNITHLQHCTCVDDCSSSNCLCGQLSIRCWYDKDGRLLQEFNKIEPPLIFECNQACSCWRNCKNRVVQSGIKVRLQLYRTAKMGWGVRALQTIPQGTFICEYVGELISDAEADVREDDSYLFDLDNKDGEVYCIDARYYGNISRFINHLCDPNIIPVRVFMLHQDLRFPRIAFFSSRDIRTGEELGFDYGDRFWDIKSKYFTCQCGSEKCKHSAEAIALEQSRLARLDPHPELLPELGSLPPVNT
Counter-ions that a name gives are not always drawn.
quantity.measured: IC50 (nM)

a. COc1cc2c(cc1OCCCN1CCCC1)[nH]c1nc(N)ccc12 [Compound 33, hydrochloride]
b. CCc1nccc2[nH]c3cc(OCCCN(C)C)c(OC)cc3c12 [Compound 91, hydrochloride]
c. COc1cc2c(cc1OCCCN(C(C)C)C(C)C)[nH]c1ccnc(C3CC3)c12 [Compound 61, hydrochloride]
d. COc1cc2c(cc1OCCCN1CCCC1)[nH]c1ccnc(-c3ccncc3)c12
e. COc1cc2c(cc1OCCCN1CCCC1)[nH]c1ccnc(-c3cnc[nH]3)c12 [Compound 84, trifluoroacetate]
Prompt: Sort the 5 molecules by IC50; largest first, smallest last. Answer by naming the labels in the order asked.
Response: c, a, d, e, b
(c: 480 nM, a: 320 nM, d: 100 nM, e: 17 nM, b: 6.7 nM)
